Sourced from the Human Domainome abundance scans (Beltran et al. 2025)

B1: Formin-binding protein 4, residues 593 to 636; numbered along this chain, Q8N3X1 (parent)
chain: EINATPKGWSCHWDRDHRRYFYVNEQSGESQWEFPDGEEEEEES

Variants of: B1
Assay: abundance fitness (aPCA) (normalised: wild type 0, dead -1); higher = more abundant; growth selection in yeast, the domain comes from the species named
Settings: Homo sapiens
Let's look at some variants and their measured abundance fitness.

>  <sequenceVariant>
E38F

>  <quantityName>
abundance fitness

>  <result>
-0.217

$$$$
>  <sequenceVariant>
D14V

>  <quantityName>
abundance fitness

>  <result>
-0.811

$$$$
>  <sequenceVariant>
R15T

>  <quantityName>
abundance fitness

>  <result>
-0.162

$$$$

Exercise: So what does the record say about abundance fitness for E42P ?
Key: 0.004

Exercise: And the next one, G28S ?
Key: -0.553

Exercise: And for E41T ?
Key: -0.011
